test: in vivo; settings: male, Sprague-Dawley, rat, iv, 3 mg/kg
Observation type: Vd
Reply with the number and its unit after it.

Query: Suppose we examine the compound C=C[C@]1(C)C[C@@H](OC(=O)COc2ccc3c(c2F)B(O)OC3)[C@]2(C)[C@H](C)CC[C@]3(CCC(=O)[C@H]32)[C@@H](C)[C@@H]1O [AN11251] ; what Vd value has been reported?
Reply: 1.44 L/kg

###

assay: in vivo; settings: male, Sprague-Dawley, rat, iv, 3 mg/kg
Observation type: clearance (mL/min/kg)
The reply should contain only the number, in mL/min/kg.

Query: Suppose we examine the compound `C=C[C@]1(C)C[C@@H](OC(=O)COc2ccc3c(c2F)B(O)OC3)[C@]2(C)[C@H](C)CC[C@]3(CCC(=O)[C@H]32)[C@@H](C)[C@@H]1O` ; what clearance value has been reported?
Reply: 19.8

###

test: in vivo; settings: male, Sprague-Dawley, rat, iv, 3 mg/kg
Observation type: Tmax (h)
The reply should contain only the number, in h.

Query: Suppose we examine the compound `C=C[C@]1(C)C[C@@H](OC(=O)COc2ccc3c(c2F)B(O)OC3)[C@]2(C)[C@H](C)CC[C@]3(CCC(=O)[C@H]32)[C@@H](C)[C@@H]1O` ; what Tmax value has been reported?
Reply: 0

###

assay: in vitro; assay type: in vitro ADME; settings: human, hepatocytes
Observation type: hepatocyte CLint at 20 µg/mL (µL/min/1e6 cells)
The reply should contain only the number, in µL/min/1e6 cells.

Query: Suppose we examine the compound `C=C[C@]1(C)C[C@@H](OC(=O)COc2ccc3c(c2F)B(O)OC3)[C@]2(C)[C@H](C)CC[C@]3(CCC(=O)[C@H]32)[C@@H](C)[C@@H]1O` ; what hepatocyte CLint at 20 µg/mL value has been reported?
Reply: 64.8

###

Measurement record for S. pyogenes SPY-0253; quantity recorded: MIC.
Reply with the number and its unit after it.

Compound	Result value
O=C(O)c1cn(C2CC2)c2cc(N3CCNCC3)c(F)cc2c1=O [Ciproflox, Ciprofloxacin]	0.25 µg/mL
NCC[C@H](O)C(=O)N[C@@H]1C[C@H](N)[C@@H](O[C@H]2O[C@H](CN)[C@@H](O)[C@H](O)[C@H]2O)[C@H](O)[C@H]1O[C@H]1O[C@H](CO)[C@@H](O)[C@H](N)[C@H]1O [Amikacin]	32 µg/mL
C=C[C@]1(C)C[C@@H](OC(=O)COc2ccc3c(c2F)B(O)OC3)[C@]2(C)[C@H](C)CC[C@]3(CCC(=O)[C@H]32)[C@@H](C)[C@@H]1O [AN11251]	0.063 µg/mL

We now examine a further compound.
Query: Suppose we examine the compound CO[C@H]1/C=C/O[C@@]2(C)Oc3c(C)c(O)c4c(O)c(c(/C=N/N5CCN(C)CC5)c(O)c4c3C2=O)NC(=O)/C(C)=C\C=C\[C@H](C)[C@H](O)[C@@H](C)[C@@H](O)[C@@H](C)[C@H](OC(C)=O)[C@@H]1C [Rifampicin] ; what MIC value has been reported?
Reply: 0.063 µg/mL

###

assay: in vitro; assay type: in vitro ADME; conditions: human, hepatocytes
Observation type: CLint scaled at 20 µg/mL (mL/min/kg)
The reply should contain only the number, in mL/min/kg.

Query: Suppose we examine the compound `C=C[C@]1(C)C[C@@H](OC(=O)COc2ccc3c(c2F)B(O)OC3)[C@]2(C)[C@H](C)CC[C@]3(CCC(=O)[C@H]32)[C@@H](C)[C@@H]1O` ; what CLint scaled at 20 µg/mL value has been reported?
Reply: 180
